Conditions: in ethyl acetate, 313.15 K
readout: solubility (mole fraction)
Provide a numeric answer; units are not to be included.

The compound identified as `O=C1NC(=O)c2ccccc21` registered its solubility (mole fraction) at 0.0125

---

Conditions: in ethyl acetate, 303.15 K
readout: solubility (mole fraction)
// no unit string in output, number only

Per the records, this compound ( `O=C1NC(=O)c2ccccc21` ) has solubility (mole fraction) equal to 0.00879
